system: MDA-MB-468 breast; assay: NCI tumour cell line growth inhibition, 48 h; in the data active means GI50 below about 0.43 µM; inactive means the rest
Hello, when you answer, please use one of the following outcomes: 1 (active), -1 (inactive)

COMPOUND: COc1ccccc1[C@H]1C(C(=O)c2ccc(O)cc2)C2(N[C@@H]1c1ccccc1)C(=O)Nc1ccc(Br)cc12 (stereo not given in full)
EXPERIMENTAL TARGET: MDA-MB-468 breast
LABEL CLASS: -1
--
COMPOUND: Cc1ccccc1C(C(=O)NC1CCCCC1)N(C(=O)CNc1ncccc1F)c1cccc(F)c1 (stereo not given)
EXPERIMENTAL TARGET: MDA-MB-468 breast
LABEL CLASS: -1
--
COMPOUND: Nc1ncn([C@H]2C[C@H](OP(=O)(O)OC[C@H]3O[C@@H](n4cnc5c(=O)[nH]c(N)nc54)C[C@@H]3O)[C@@H](CO)O2)c(=O)n1
EXPERIMENTAL TARGET: MDA-MB-468 breast
LABEL CLASS: 1

How did this test come out for CN(C)C=Nc1c(I)cc(I)c(CCC(=O)O)c1I ? -1

# fetch the recorded call for O=S(=O)(NCCCNc1cc(-c2cn(-c3ccccc3)nc2-c2cccc(O)c2)ccn1)c1ccc(Br)cc1 here -1

Answer briefly: the call reported for C/C(=N\N=C1/C(=O)Nc2ccc(Cl)cc21)c1ccc2c(c1)Nc1ccccc1S2 in this assay. -1

Entry Oc1ccccc1/C=N\NC(=S)N/N=C/c1ccccc1O : call = ? -1

Tell me the assay call for CN(C)CCS(=O)(=O)Nc1cc(-c2ccc3ncc(C#N)c(Nc4ccc(F)c(Cl)c4)c3c2)cnc1Cl please. 1

In this assay, the call recorded for CCNCCNc1cc(-c2ccc(C(F)(F)F)cc2)c(C#N)c2nc3cc(Cl)c(Cl)cc3n12 was what? -1

Which outcome was entered for the compound CN(C)CCOc1ccccc1NC1=C(Cl)C(=O)C(Nc2ccccc2OCCN(C)C)=C(Cl)C1=O in this test? -1

Which result was noted for this compound in the test: Cc1sc2c(c1C)C(c1ccc(Cl)cc1)=N[C@@H](CC(=O)NCCCN1CCN(C)CC1)c1nnc(C)n1-2 1
